Reference for the values: the DeepSol protein solubility set

- test-name: soluble on expression in E. coli; label from the status in PepcDB or PDB records
property: soluble on expression in E. coli

# seq, property, test-value
rows = [
    ("MSLLSIIPISAGIPLTETEPKQKWLEEWSKQLFVKVSIDSEYGWGEVLPAAFNSPALYADIVKRLEPSLNGMEISEPGIIWEKLRKLTFSGGYGPVIGAISGVDIALWDLKAKLSKLYLGDIFGKNEQKIARYASLSRYANYEAVIRASKNIVESGFKAIKLHQTKDDTLESVKRFREEIGYGVDLMVDLNCAMNIDEAIKFANSVQRYELKWVEEPIWPPDDLASLKKINDIVPVAAGENFFDFFKFEDAVHLEALTYYQPDVTKVGGLTPTLKILDLLKKNHEQVAFHNRPHNGWIGIFASIAAARMNGVDALIETPPNGVPSQYFRYNAMITSEVIAPNGVGLSIEPIEPLPQPKDEKILIFHDEGHHHHHH", "soluble on expression in E. coli", "not soluble"),
    ("MSLHKRMKKKLILAAAGAMAVFSLAACSSGSKDIATMKGSTITVDDFYNQIKEQSTSQQAFSQMVIYKVFEEKYGDKVTDKDIQKNFDEAKEQVEAQGGKFSDALKQAGLTEKTFKKQLKQRAAYDAGLKAHLKITDEDLKTAWASFHPEVEAQIIQVASEDDAKAVKKEITDGGDFTKIAKEKSTDTATKKDGGKIKFDSQATTVPAEVKEAAFKLKDGEVSEPIAATNMQTYQTTYYVVKMTKNKAKGNDMKPYEKEIKKIAEETKLADQTFVSKVISDELKAANVKIKDDAFKNALAGYMQTESSSASSEKKESKSSDSKTSDTKTSDSEKATDSSSKTTESSSKEGGSHHHHHH", "soluble on expression in E. coli", "soluble"),
    ("MSLRDGKHIRTKLTPQKDRGESSYRIGLYIRDSAAGIGTMTFVHPDSMKYGALGHVISDNDTKKPIQVEDGQIMRSTVTSIERGSHGNPGEKLARFSPDREVIGNITINSPFGIFGKLNTNMTNGVMDKAMPIALSHQVKEGPAKILTVIDQDKVEAFDIEVVSTVPQKFPATKGMVIKVTDKRLLAKTGGIVQGMSGSPIVQNGKVIGAVTHVFVNDPTSGYGVHIEWMLHEAGINIYDQERKASEGHHHHHH", "soluble on expression in E. coli", "soluble"),
    ("MAGDPMKKLVTATTLTAGIGTALVGQAHHADAAENYTNYNNYNYNTTQTTTTTTTTTTTSSISHSGNLYTAGQCTWYVYDKVGGEIGSTWGNANNWAAAAQGAGFTVNHTPSKGAILQSSEGPFGHVAYVESVNSDGSVTISEMNYSGGPFSVSSRTISASEAGNYNYIHILEHHHHHH", "soluble on expression in E. coli", "not soluble"),
    ("MRFAVLGSGSRGNGTLVASNDTYVLVDCGFSLRETERRLARLGVAASQLSAILVTHEHADHVHGVGLLSRRYNVPVYLSSGTLRGMRKPVEVAGLLAGGESLQIGALDIDVVSVAHDALEPTQFVFSDGSRRFGLLTDLGSYCSNVLQRYQGLDALMIEANHCRDMLARGQYPVFLKQRVGCETGHLNNHQAASLVSELGWQDLQHLVLAHLSSKNNLPHLARQCFVDTLGCDPDWLQLADQDSGLDWRHIALEHHHHHH", "soluble on expression in E. coli", "not soluble"),
    ("MYILVTTGSMGFKRLFDAIVKSVIGKRIVIQTGKIDPTIYRNQNVTTFSFDPDLEKWIANASLVITHQGKTAMEAVVMYRKPVIMVYNNDWKSATTLSDAKKYAEILGATFLSDPITWSDYNVLLEAIENANEPNVFDTGTPNLVKHVLSEL", "soluble on expression in E. coli", "soluble"),
    ("MEVSSVFIFPPKPKDVLTITLTPKVTCVVVDISKDDPEVQFSWFVDDVEVHTAQTQPREEQFNSTFRSVSELPIMHQDWLNGKEFKCRVNSAAFPAPIEKTISKTKGRPKAPQVYTIPPPKEQMAKDKVSLTCMITDFFPEDITVEWQWNGQPAENYKNTQPIMDTDGSYFVYSKLNVQKSNWEAGNTFTCSVLHEGLHNHHTEKSLSHSPGKE", "soluble on expression in E. coli", "soluble"),
    ("MPVLSIISCRMFEDELAHIISSDKEMKQLIVVENKDSFGLLRKLRSDNCLPRTSPLDRVPFLLGNGHGSGFMTISKPLLILPFFRKIHEKMKIKAAQELTVVVNLLKLGLHDDIEILRSEVYKNIKEMTSFSDGILLFYCSCGGAFENLEENCLEFDCPLYWFKDGNEEVVVDCISAAIGGNAAYDELMYTCRGTGALYFTSMWASSWKEMREERKKSRNFNENYLKDPRYSRVVKLDTGLSYDPDFHKNVRDFARTFDMEIIEVKGSVELAEKSYRTAKKGVVQHTLKLEHHHHHH", "soluble on expression in E. coli", "not soluble"),
    ("MPEQLNTRVEDCFQLAESFFKRPFKRPVVSLKLRGQKAGVAHLHENLLRFNPQLYRENTEDFLKQTVAHEVAHLIAHQLFGERIQPHGEEWQLIMRGVYELPPNRCHTYDVKRRSVTRYIYRCPCAESDFPFSAQRHKLVAQGRRYLCRRCRQTLVYSGETRVELEHHHHHH", "soluble on expression in E. coli", "not soluble"),
    ("GSMAAAGNKSINAKLVLLGDVGAGKSSLVLRFVKDQFVEFQESTIGAAFFSQTLAVNDATVKFEIWDTAGQERYHSLAPMYYRGAAAAIIVFDVTNQASFERAKKWVQELQAQGNPNMVMALAGNKSDLLDARKVTAEDAQTYAQENGLFFMETSAKTATNVKEIFYEIARRLPRVQPTEN", "soluble on expression in E. coli", "soluble"),
]

// for each sequence below, give its soluble on expression in E. coli
1. STPELLSGHIPPGHIPKPIVMPDYVAKYPVIQTDDDRERYKAVFQDQFSEYKELSAEVQAILRKFDELDTVMSRLPHHSENRQEHERISRIHEEFRKKKNDPSFLEKKERCDYLKNKLSHIKQRIQEYDKVMNWDTQGYP
2. MYKILRTEKSWIEGSAVEQVKKLASLKGVENVIGYPDLHPGKTPIGISIITKDVIYPHLIGNDIGCSISLFETSELKRKFKVEKVMKTLQNSDLKNEIKKDFNLGTIGGGNHFAEFTLVDKILDESETTNFDKNKVYLLVHSGSRGLGEEILRKYIDYYSCQNGLAVNSEGFNNYISDYKKAVVFAKENRQLIAKNLCQLLNLKAFDLKIEAIHNGLELREDYIIHRKGAATALNKYVVIAGSRGDYSYIVKPINSSLETGFSIAHGAGRKWKRSGCKEKLQGKFSKKAIRNRSFSYNLICSNTNLVYEEAPEAYKNIDRVIDDLLSFNLIKVVARLKPLITYKDLEHHHHHH

Result string:
1. soluble
2. not soluble
